# experimental system: T1, ZFP SBS#828 (synthetic)
# T1 chain: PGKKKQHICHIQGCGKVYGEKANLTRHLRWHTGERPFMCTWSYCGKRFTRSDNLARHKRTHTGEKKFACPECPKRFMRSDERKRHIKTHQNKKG
# assay procedure: EMSA
# reported conditions: tags: MBP fusion

| binder | Kd / pM |
| --- | --- |
| GCGGAGGACC (dsDNA) DNA 1: GCGGAGGACC DNA 2: GGTCCTCCGC | 100 |
